# Tested on: HEK293-A
# procedure.text: Cytotoxicity against HEK293-A cells expressing GFP-tagged LC3 assessed as cell viability at 10 uM incubated for 24 hrs by MTT assay
# Format: functional, cell-based
# recorded.conditions: Homo sapiens
Activity calls are given as the source filed them. The rule behind the calls is not given here.
Assign a class; possible classes are t for active, f for inactive

molecule=CCCCCCCC[C@@H](C)[C@@H]1OC(=O)[C@H](CO)NC(=O)[C@H](Cc2c[nH]c3ccccc23)NC(=O)[C@@H](CCC(=O)O)NC(=O)[C@H]1C class=f
molecule=CCCCCCCC[C@@H](C)[C@@H]1OC(=O)[C@H](CO)NC(=O)[C@H](C(=O)c2c[nH]c3ccccc23)NC(=O)[C@@H](CCC(=O)OCC)NC(=O)[C@H]1C class=f

Ask: Test call, this molecule: CCCCCCCC[C@@H](C)[C@@H]1OC(=O)[C@H](CO)NC(=O)/C(=C/c2c[nH]c3ccccc23)NC(=O)[C@@H](CCC(=O)O)NC(=O)[C@H]1C
Reply: f

Ask: Test call, this molecule: CCCCCCCC[C@@H](COC(C)=O)[C@@H]1OC(=O)[C@H](CO)NC(=O)[C@H](C(=O)c2c[nH]c3ccccc23)NC(=O)[C@@H](CCC(=O)O)NC(=O)[C@H]1C
Reply: f

Ask: Test call, this molecule: C=C1C(=O)O[C@@H](C(=O)O)[C@@H]1CCCCCCCCCCC
Reply: t

Ask: Test call, this molecule: C=C1C(=O)O[C@H](CCCCCCCCCC)[C@H]1[C@@H](O)C(=O)OCC
Reply: f

Ask: Test call, this molecule: CCCCCCCCCC[C@H](O)C1=C(COCC)C(=O)OC1
Reply: f
